# measured-target: T1, CTLA4.B3.B6.D5 I-OnuI HE variant (Ophiostoma novo-ulmi)
# T1 chain: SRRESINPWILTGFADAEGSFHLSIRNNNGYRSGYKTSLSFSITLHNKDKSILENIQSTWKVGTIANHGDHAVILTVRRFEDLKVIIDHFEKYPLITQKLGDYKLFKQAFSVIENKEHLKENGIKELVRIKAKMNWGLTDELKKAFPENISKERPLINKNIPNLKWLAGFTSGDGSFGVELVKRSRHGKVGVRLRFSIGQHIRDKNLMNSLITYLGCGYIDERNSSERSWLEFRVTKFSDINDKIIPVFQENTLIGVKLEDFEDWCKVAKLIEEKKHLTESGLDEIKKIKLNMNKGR
# assay-summary: flow; sub-nanomolar affinity; yeast surface affinity titration, value only in figure
# measurement-context: tags: yeast surface display
pKd: −log10 of the molar value.
measurement-name: pKd

Item: CTLA4 exon 2 HE target site (dsDNA) DNA 1: TGGAGATGCATACTCACACACA DNA 2: TGTGTGTGAGTATGCATCTCCA | pKd: > 9.00
